- Test description: NCI Yeast Anticancer Drug Screen. Data for the rad50 strain (AID 155);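 note: 0% = growth of vehicle-only cultures of the same strain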
- Test settings: S. cerevisiae rad50 strain growth inhibition; at 50.0 µM; stronger effect = higher value
The panel holds about 79,000 compounds, 15% with a hit somewhere; the sample as a whole holds those more often.
Some molecules, each annotated with its measured growth inhibition.
Return type: number; implicit unit %.

Some solved cases for reference:
| Molecule | growth inhibition (%) |
| --- | --- |
| O=C1c2cc([N+](=O)[O-])sc2C(=O)c2c([N+](=O)[O-])csc21 | 91 |
| Cc1ccc(NC(=O)C2C(=O)N(c3ccc(C)c(C)c3)C(=O)C2N=N)cc1C (stereo unspecified) | 7.9 |
| O=C(O)c1cccc2c1CCCC2 | -2.7 |
| CCOCc1ccccc1C(O)(c1ccc(OC)cc1)c1ccccc1OC (stereo unspecified) | 37.6 |

The molecule listed as NC(CSCCSCCSCC(N)C(=O)O)C(=O)O (stereo unspecified) has a reported growth inhibition of -4.45

The molecule listed as CC[N+](C)(CC)CCOC(=O)C(c1ccccc1)C(O)C1CCCCC1 (stereo unspecified) has a reported growth inhibition of 29.8

----------
- Test description: NCI Yeast Anticancer Drug Screen. Data for the bub3 strain (AID 167)
- Test settings: S. cerevisiae bub3 mutant strain, at 50.0 µM, stronger effect = higher value
This is part of a sample that, as a whole, favours compounds with a hit. Of some 79,000 tested, about 15% had one in any assay.
Quantity name: growth inhibition (%)
Return type: number; implicit unit %.

Some solved cases for reference:
| Molecule | Experimental result |
| --- | --- |
| COc1ccccc1N1C(Cl)C(=O)C1c1c[nH]c2ccccc12 (stereo unspecified) | -26.6 |
| CC1OC(c2cccc([N+](=O)[O-])c2)OCC1(C)C (stereo unspecified) | 15.1 |
| c1ccc(N=C(N2CCCC2)N(CCN2CCCC2)c2ccccc2)cc1 | -14.2 |
| CC(C)C(=O)Nc1nc(OCCc2ccc([N+](=O)[O-])cc2)c2ncn(C3CC(O)C(CO)O3)c2n1 (stereo unspecified) | -0.75 |
| COc1ccc(CCN2C(=O)C(=O)N(C(C)C)C2=O)cc1OC | 4.85 |
| COc1ccc(-c2cc(C)n(C3OC(CO)C(O)C(O)C3O)c(=S)c2C#N)cc1 (stereo unspecified) | -0.6 |

The molecule listed as "Cn1c2ccccc2c2nnc(N/N=C/c3cccs3)nc21" has a reported growth inhibition of -10.6

The molecule listed as C=C1C(=O)OC2C1CCC1(C)CC(Br)C(=O)C(C)C21 (stereo unspecified) has a reported growth inhibition of -5.85

----------
- Test description: NCI Yeast Anticancer Drug Screen. Data for the cln2 rad14 strain (AID 165);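 note: 0% = growth equal to vehicle treated cultures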
- Test settings: S. cerevisiae cln2 rad14 strain, at 50.0 µM, stronger effect = higher value
This is part of a sample that, as a whole, favours compounds with a hit. Of some 79,000 tested, about 15% had one in any assay. Calls of active or inactive are those of the source. Rule as the data show it: active = growth inhibition above about 70%; inactive = the rest.
Quantity name: growth inhibition

| Compound | growth inhibition |
| --- | --- |
| O=C(Nc1ccc([N+](=O)[O-])cc1)OCc1ccccc1 | 0.7% (inactive) |
| CC1OC(c2cccc([N+](=O)[O-])c2)OCC1(C)C (centres undefined) | -32.6% (inactive) |
| Cc1[nH]c(C)c2ccc(=O)ccc12 | -58.2% (inactive) |
| CNC(C#N)c1ccc(OC)cc1 (centres undefined) | -17.4% (inactive) |
| COC(=O)CC1(C)[C@H](O)[C@H]2OC(C)(C)O[C@H]2[C@@H]1O (some centres undefined) | -3.25% (inactive) |

The compound listed as "C/C(=N\NC(=O)/C(C#N)=C\c1ccc(N(CCC#N)CCC#N)cc1)c1ccccc1" has a reported growth inhibition of -6.9% (inactive)

The compound listed as "Cc1noc(/N=C/c2ccccc2)c1C" has a reported growth inhibition of -28.1% (inactive)

----------
- Test description: NCI Yeast Anticancer Drug Screen. Data for the mec2-1 strain (AID 157)
- Test settings: S. cerevisiae mec2-1 strain, at 50.0 µM, stronger effect = higher value
The panel holds about 79,000 compounds, 15% with a hit somewhere; the sample as a whole holds those more often.
Quantity name: growth inhibition (%)
Return type: number; implicit unit %.

| Compound | growth inhibition (%) |
| --- | --- |
| O=c1cc(-c2ccc(Cl)cc2)oc2cc(OCCCOc3ccc4c(=O)cc(-c5ccc(Cl)cc5)oc4c3)ccc12 | 37.5 |
| CC(=O)Oc1c(/C=C/c2ccccc2)c(OC(C)=O)c2cc(Br)ccc2c1OC(C)=O | 28.2 |
| COC(=O)CC1(C(=O)OC)Nc2ccccc2C(=O)O1 (stereo not given) | 21.7 |

The compound listed as CCC(C)NC(=O)/C=C/c1ccccc1 (stereo not given) has a reported growth inhibition of 17.1

The compound listed as "Cc1cc(S(=O)(=O)O)cc(Cl)c1N" has a reported growth inhibition of -27.9

The compound listed as "CCN(CC)c1ccc(/C=C2\SC(=S)NC2=O)cc1" has a reported growth inhibition of 4.65

The compound listed as "CCN(CC)CCOCC(=O)Nc1ccccc1C" has a reported growth inhibition of 4.8

The compound listed as "N/C(CCOCC/C(N)=N\O)=N/O" has a reported growth inhibition of 25.4

The compound listed as "CC1(C)CS(=O)(=O)CC(C)(C)C(=N/N)/C1=N\N" has a reported growth inhibition of 26.9

The compound listed as "CN1CCN(Cc2oc(CO)cc(=O)c2O)CC1" has a reported growth inhibition of -22.9

The compound listed as "CCc1ccc(NC(=S)NC(=O)c2ccccc2OC)cc1" has a reported growth inhibition of 7.05

The compound listed as "CCOc1c(N=Nc2ccccc2C)c(C)nn1C(=S)SC" has a reported growth inhibition of -2.2

The compound listed as "CC(/C=C/c1ccccc1)=N\N=C(C)\C=C\c1ccccc1" has a reported growth inhibition of -20.2

The compound listed as "CC1(C)C=C(S(=O)(=O)c2ccccc2)Oc2ccccc2O1" has a reported growth inhibition of 8

The compound listed as "CNC(=O)CN(CC(=O)NC)C(=O)NC" has a reported growth inhibition of 7.3

The compound listed as "CC1(C)Cc2ccccc2C1=O" has a reported growth inhibition of -4.85

The compound listed as OC(CCN1CCC2CCC(C2)C1)(c1ccccc1)c1ccc(Cl)cc1 (stereo not given) has a reported growth inhibition of -16.1

----------
- Test description: NCI Yeast Anticancer Drug Screen. Data for the mlh1 rad18 strain (AID 175)
- Test settings: S. cerevisiae mlh1 rad18 strain growth inhibition; at 50.0 µM; stronger effect = higher value
This is part of a sample that, as a whole, favours compounds with a hit. Of some 79,000 tested, about 15% had one in any assay.
Some compounds, each annotated with its measured growth inhibition.
Return type: number; implicit unit %.

Some solved cases for reference:
| Compound | growth inhibition, % |
| --- | --- |
| COC(=O)[C@H]1[C@H]2C[C@@H]3c4[nH]c5ccccc5c4CCN3C[C@H]2C[C@@H](OC(=O)c2cc(OC)c(OC)c(OC)c2)[C@@H]1OC | 17.3 |
| O=C(O)C#Cc1ccccc1 | 0.3 |
| COc1ccc2c(c1)CCN1CCc3ccccc3CC21 (configuration not stated) | 42.6 |
| CNc1ccc([N+](=O)[O-])cc1C(=O)OC | 22.9 |
| CCC(C)(C)c1ccc(OCCOc2ccc(C(=O)O)cc2[N+](=O)[O-])cc1 | -20.1 |
| CN1C(=O)CC2(C)c3cc(O)ccc3N(C)C12 (configuration not stated) | -81.7 |
| N#Cc1cnn(-c2ccc([N+](=O)[O-])cc2)c1N | 20.5 |
| COc1ccccc1NC(=O)NC1CCCCC1 | -15.2 |

The compound listed as "COc1ccccc1C(=O)C(CN(C)C)CN(C)C" has a reported growth inhibition of 13.7

The compound listed as "Nc1nc(N)nc(-c2ccccc2NC(=O)c2ccccc2N)n1" has a reported growth inhibition of 18

The compound listed as "O=P(O)(O)c1ccc(Cl)cc1" has a reported growth inhibition of -9.4

The compound listed as "CNC(=O)OCc1nc(SC)n(Cc2ccccc2)c1COC(=O)NC" has a reported growth inhibition of 18.5

----------
- Test description: NCI Yeast Anticancer Drug Screen. Data for the cln2 rad14 strain (AID 165);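 note: 0% = growth equal to vehicle treated cultures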
- Test settings: S. cerevisiae cln2 rad14 strain, at 50.0 µM, stronger effect = higher value
About 79,000 compounds went through this panel and 15% of them were active in at least one assay; those are over-represented in the sample as a whole.
Quantity name: growth inhibition (%)
Return type: number; implicit unit %.

| Compound | Quantity name | Display unit | Experimental result |
| --- | --- | --- | --- |
| c1ccc(Cn2ccnc2CSCCSCc2nccn2Cc2ccccc2)cc1 | growth inhibition | % | 12.9 |
| CC(=O)OC1CCC2(C)C(CCC3C2CC(OC(C)=O)C2(C)C(C(C)CCC(c4ccccc4)c4ccccc4)CCC32)C1 (stereo not given) | growth inhibition | % | 14.9 |
| CCOC(=O)c1nn2c(nc1=O)sc1ccc3ccccc3c12 | growth inhibition | % | 32.1 |
| COCCn1nc(-c2ccc(Cl)cc2)c(-c2ccc(Cl)cc2)c(C(C)=O)c1=O | growth inhibition | % | 9.05 |

The compound listed as "[O-][n+]1c2ccc(Cl)cc2nc2ccc(Cl)cc21" has a reported growth inhibition of -27.4

The compound listed as "O=C(CCCl)Nc1cccc(CCC(=O)c2ccccc2NC(=O)CCCl)c1" has a reported growth inhibition of -15.9

The compound listed as CN(c1ccccc1)C1C(=O)N(c2ccccc2)C1/C=C/c1ccccc1 (stereo not given) has a reported growth inhibition of 29.4

The compound listed as "Fc1c(F)c(F)c(Nc2c(F)c(F)c3c(F)c(F)c(F)c(F)c3c2F)c(F)c1F" has a reported growth inhibition of -62.9

The compound listed as "Cc1ccc(C(=O)Nc2ccc(CP(=O)(O)O)cc2CP(=O)(O)O)cc1NC(=O)Nc1cc(C(=O)Nc2ccc(CP(=O)(O)O)cc2CP(=O)(O)O)ccc1C" has a reported growth inhibition of -0.25

The compound listed as CN1CCCC(CO)C1 (stereo not given) has a reported growth inhibition of 6.95

Recorded values, source PubChem BioAssay (NCI).
